# phosphorylation enrichment annotations
tested on: Jak2 (UniProt O60674)
Sequence (O60674 whole entry, looked up): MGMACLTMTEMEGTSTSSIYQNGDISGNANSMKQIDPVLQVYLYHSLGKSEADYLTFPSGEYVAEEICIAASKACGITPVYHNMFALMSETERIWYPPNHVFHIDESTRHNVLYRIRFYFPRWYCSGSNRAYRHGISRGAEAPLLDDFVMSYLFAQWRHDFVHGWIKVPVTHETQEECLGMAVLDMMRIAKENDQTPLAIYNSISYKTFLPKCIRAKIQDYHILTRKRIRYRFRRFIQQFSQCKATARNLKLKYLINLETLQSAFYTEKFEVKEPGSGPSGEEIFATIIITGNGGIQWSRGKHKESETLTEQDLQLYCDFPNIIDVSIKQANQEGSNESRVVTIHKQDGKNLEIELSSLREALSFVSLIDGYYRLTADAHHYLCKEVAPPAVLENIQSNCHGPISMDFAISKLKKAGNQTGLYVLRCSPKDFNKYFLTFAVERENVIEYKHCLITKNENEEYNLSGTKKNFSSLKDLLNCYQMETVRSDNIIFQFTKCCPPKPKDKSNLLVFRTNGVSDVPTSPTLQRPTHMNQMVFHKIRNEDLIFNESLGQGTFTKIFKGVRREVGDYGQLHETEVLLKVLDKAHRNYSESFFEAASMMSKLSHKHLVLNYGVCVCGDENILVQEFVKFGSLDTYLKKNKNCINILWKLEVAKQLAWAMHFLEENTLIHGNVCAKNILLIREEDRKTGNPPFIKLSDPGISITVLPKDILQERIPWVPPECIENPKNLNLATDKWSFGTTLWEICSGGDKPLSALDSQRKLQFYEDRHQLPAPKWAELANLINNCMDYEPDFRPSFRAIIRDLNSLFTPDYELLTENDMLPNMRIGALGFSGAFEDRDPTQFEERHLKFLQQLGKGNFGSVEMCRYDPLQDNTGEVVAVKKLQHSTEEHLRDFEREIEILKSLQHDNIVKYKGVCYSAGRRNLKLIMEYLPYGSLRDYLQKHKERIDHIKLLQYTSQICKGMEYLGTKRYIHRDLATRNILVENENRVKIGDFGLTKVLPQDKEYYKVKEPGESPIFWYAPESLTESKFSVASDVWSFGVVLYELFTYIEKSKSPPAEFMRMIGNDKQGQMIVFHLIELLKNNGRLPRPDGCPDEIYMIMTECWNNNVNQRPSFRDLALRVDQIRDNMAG
test summary: phosphorylation enrichment, bacterial display (enrichment ratio); higher = better substrate or ligand; peptides without Tyr show the background;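 also: 11-residue human phosphosite peptides and single-mutation variants displayed on the E. coli surface, counted by deep sequencing, each peptide's frequency after selection divided by its frequency in the unselected input library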;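 also: frequency after pTyr selection over input frequency; kinase dosed for 20-30% of maximal phosphorylation in three min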
Just the number.

Some entries whose results are on file:
• HYVYYYSYLLK [PTEN_Y178_R173H] = 2.42
• ARRHPYFYAPE [ALB_Y172] = 0.8
• DENRFYTRAAS [RPS19_Y54_W52R] = 0.721
• LYNQDYPIHSV [GATM_Y227] = 0.984
• CEHRGCLYLAI [TEK_Y897_Y897C] = 1.05
• TYVKSYTIHYS [F5_Y2153_M2148T] = 0.633

Exercise: Please give the measured phosphorylation enrichment for this sequence: DEDYLCREELA [POR_Y575_Y575C]
Solution: 0.929
